Study the reported Ki values for Prothrombin (Homo sapiens) given below; they originate from different publications.
Recorded endpoint: Ki (µM)

INSERT INTO assay_data (compound, reported_measurement) VALUES
  ('CC1(C)C2CC1[C@]1(C)OB([C@H](CCCN=C(N)N)NC(=O)c3ccc(-c4ccccc4)c(N)c3)O[C@@H]1C2 (stereo partly drawn)', 0.0055),
  ('N=C(N)c1csc(CNC(=O)[C@@H]2CCCN2C(=O)[C@H](NS(N)(=O)=O)C(c2ccccc2)c2ccccc2)c1', '2e-05'),
  ('N=C(N)c1ccc(COc2cc(OCc3ccc(C(=N)N)cc3)cc(C(=O)N[C@H]3CC[C@H](N)CC3)c2)cc1', 1.64);

1: CNc1ccc(C#CC[C@H](NS(=O)(=O)c2ccc3ccccc3c2)C(=O)N(C)C2CCCC2)cc1N
2: CC1(C)OB([C@H](CCCNC(=N)N)NC(=O)c2ccccc2)OC1(C)C
Input: Identify the entry with the smaller Ki: 1 or 2 . Indicate your choice by writing its label.
Output: 1
(1: 0.04 µM, 2: 0.512 µM)

1: N=C(N)NOCCCOc1cc(Cl)cc(C(=O)N(CCc2ccncc2)CC2CC2)c1
2: N=C(N)c1ccc(N)c(CN2CC[C@H](NS(=O)(=O)c3ccc(-c4cccnc4)s3)C2=O)c1
3: NCc1ccc(C[C@H](NS(=O)(=O)c2ccc3ccccc3c2)C(=O)N2CCCCC2)cc1
4: N=C(N)NCCCC(NC(=O)[C@@H]1CC[C@H]2CN(C(=O)CCc3cccc4ccccc34)CC(=O)N21)C(=O)c1nccs1 (stereo partly drawn)
Input: List by increasing Ki. Would you mind listing the labels in the order requested?
Output: 4, 3, 1, 2
